Assay: in vivo
Conditions: female, Sprague-Dawley, rat, in vivo, iv, 1.5 mg/kg
reported.property: AUC(0-t)

Fill blank: measured AUC(0-t) of the compound CN1CCN(C(=O)C2C3CCC(O3)C2C(=O)O)CC1 (stereo not shown) is ____.
696 to 7400 ng·h/mL

----------
Experiment: Pharmacokinetic study of 157 (and metabolite endothal) in SD rats, iv and po; plasma, liver, brain
Format: in vivo
Settings: female, Sprague-Dawley (SD), rat, in vivo, iv, 1.5 mg/kg, iv 1.5 mg/kg, 2 hr, Mean; read-out: 157 liver concentration
reported.property: concentration at 2 h (ng/g)
Lab book: enter the figure in ng/g, no units written.

Fill blank: measured concentration at 2 h of the molecule CCCCCCCOC(=O)C1C2CCC(O2)C1C(=O)N1CCN(C)CC1 (stereo not shown) is ____.
8.06

Hello, the source for this data is patent US20160264593A1, in case you need it.
